Experiment: folding stability dG unfold from trypsin proteolysis; higher = more stable
experimental_endpoint: folding stability dG unfold (kcal/mol)

>>> measured("SAGGMITLTLPIPAEFLEKHGLDEAKKIVLEKAKEELKKLGLSEKYPIKKIEITPEPESLTATIVILSAGGS [r16_368_JUSTAS]")
2
>>> measured("SAGGSAGGSAGGSIEIEITVELEDGYYLRISARFELNEDGSLKLEIKIELIKIEPGQELSAGGSAGGSAGGS [r10_241_TrROS_Hall]")
3.52
>>> measured("SAGGSAGGKIKPGEKVKVKVKIKNKNGEVFEATATVVDGKIFIEVDGKIYEISADDIEEIEVEPSAGGSAGG [r6_132_TrROS_Hall]")
1.47
>>> measured("SAGGSAGGSAGPPPIEELLEQAKKNPNRPITIRNPGGYYIRITVKPDPNGKPEVEIEPVPSAGGSAGGSAGG [r11_300_TrROS]")
0.259
>>> measured("SAGGSLELPEGAKVEVEVEIEEVDDDTVKIKVKVKFTFINEDGEPETFEAEFEFEIPKEEAEELLGSAGGSA [r2_226_TrMRF]")
1.88
>>> measured("SAGGSVVPLPLDETVELTFDGTTATFTALPDGTATATFTGPDSTARATFPPDGAVTVTVPGAGTTAASAGGS [r16_725_JUSTAS]")
-1.18
>>> measured("SAKIKIEKKEDGTIVIEVEAESEEEAEEAVKELVKELEKKGIKVEVVEVKIEKDPEKKGKYRVTIVIKKSAG [r14_119_TrROS_Hall]")
2.69
>>> measured("MTIVIDTPVPPEEAEALLRELAEELGYSPELMEVEERVFSEGEDGRPYVTLTVRLPGLGVTITLRLPPDAAS [r1_21_JUSTAS]")
3.61
>>> measured("SAEERVFLVPVERRPDGSVRLRFVRPDRVVELELPAGFTVEDALQALSAHPDLRVEVLEAHPDLVLVRGSAG [r14_404_TrMRF]")
1.82
>>> measured("SAGGSAGGSAGGSTKTYNAEIDNPNGPKITIPIEYRNEDGESDFEEKAKKFAEEYAKKYSAGGSAGGSAGGS [r4_168_TrMRF]")
-0.886
>>> measured("SAGGSAGGSALVRIEFPNGREIEIPNNMPYEQAKDVAVELAEEHGKNGRPFKVKIEEIKPPGSAGGSAGGSA [r18_213_TrROS]")
0.439
>>> measured("SAGGRGVGRPGSRLLLVAEADLEPDEVSVEELAERIREAFPDVRVVDLRVEVGGEKARLFALVELDVSAGGS [r8_202_TrMRF]")
0.917
>>> measured("SAGGSAFKGMPPEQVKRVIEIDHPNGKDIYIVRYKGPGHMMIFPPKEGKPIYIPMPLDEIKEFLLSSAGGSA [r15_810_TrROS]")
0.337
>>> measured("SAGEIAEALGFEVVDVSIEEVDGKLRITVVVRFKDNDLVITAEAEVTEVDGELKIEIKITIEPLPPEDLSAG [r5_516_TrROS_Hall]")
2.85
>>> measured("SAGGSAGGSKITITIAPGMSEEEAKKLAEELAKEFNIEIEVKIEPLKPVEKKFYVDKETNEIKSAGGSAGGS [r12_159_TrROS_Hall]")
-0.357
>>> measured("SAGGSAGGSAGGSSSSLTPIGSSEKLEKLPDSSLRLVTTTTYRDPVTGETSTTTTVTLTDSAGGSAGGSAGG [r7_546_JUSTAS]")
-0.46
>>> measured("SAGGSATIEEKIRNIAKEQGFPVTDVQVRRTPGKVYIMFQAKDPRMYYIEIDNDKIKIMPAEDIKPSAGGSA [r15_901_TrROS]")
1.14
